Biological target: HLA-A*02:01
Test: IEDB peptide-MHC binding, cellular MHC/competitive/fluorescence; bounds were set here for any values at or beyond the usual limits of such assays
Conditions: source organism: Vaccinia virus WR
quantity.name: IC50 (µM)

[[record]]
sequence_string = "IAGLKIEEI"
system_name = "HLA-A*02:01"
units_symbol = "µM"
reading_qualifier = "="
endpoint_value = 23.2

[[record]]
sequence_string = "VTKTDGIPIT"
system_name = "HLA-A*02:01"
units_symbol = "µM"
reading_qualifier = "="
endpoint_value = 27.5

[[record]]
sequence_string = "KVDVELFIKA"
system_name = "HLA-A*02:01"
units_symbol = "µM"
reading_qualifier = "="
endpoint_value = 8

[[record]]
sequence_string = "HLSCKSGFT"
system_name = "HLA-A*02:01"
units_symbol = "µM"
reading_qualifier = "="
endpoint_value = 6.23

[[record]]
sequence_string = "GLESIEQNLT"
system_name = "HLA-A*02:01"
units_symbol = "µM"
reading_qualifier = "="
endpoint_value = 34.4

[[record]]
sequence_string = "SIRIKIDKL"
system_name = "HLA-A*02:01"
units_symbol = "µM"
reading_qualifier = "="
endpoint_value = 16.5

[[record]]
sequence_string = "DLSKLSKDVV"
system_name = "HLA-A*02:01"
units_symbol = "µM"
reading_qualifier = "≥"
endpoint_value = 70

[[record]]
sequence_string = "LTVSFIDET"
system_name = "HLA-A*02:01"
units_symbol = "µM"
reading_qualifier = "≥"
endpoint_value = 70

[[record]]
sequence_string = "LISMYCSKT"
system_name = "HLA-A*02:01"
units_symbol = "µM"
reading_qualifier = "="
endpoint_value = 12.5

[[record]]
sequence_string = "LTAVEHIPTM"
system_name = "HLA-A*02:01"
units_symbol = "µM"
reading_qualifier = "="
endpoint_value = 7.83

[[record]]
sequence_string = "DVGCLLTDT"
system_name = "HLA-A*02:01"
units_symbol = "µM"
reading_qualifier = "≥"
endpoint_value = 70

[[record]]
sequence_string = "HTYHLENDKI"
system_name = "HLA-A*02:01"
units_symbol = "µM"
reading_qualifier = "="
endpoint_value = 59

[[record]]
sequence_string = "DIRTLLPILL"
system_name = "HLA-A*02:01"
units_symbol = "µM"
reading_qualifier = "="
endpoint_value = 50.6

[[record]]
sequence_string = "MASLLYLIL"
system_name = "HLA-A*02:01"
units_symbol = "µM"
reading_qualifier = "="
endpoint_value = 9.14

[[record]]
sequence_string = "PTEMVDVSMM"
system_name = "HLA-A*02:01"
units_symbol = "µM"
reading_qualifier = "="
endpoint_value = 41.9

[[record]]
sequence_string = "VMETDRENA"
system_name = "HLA-A*02:01"
units_symbol = "µM"
reading_qualifier = "="
endpoint_value = 8.08

[[record]]
sequence_string = "VIRHVDGKI"
system_name = "HLA-A*02:01"
units_symbol = "µM"
reading_qualifier = "="
endpoint_value = 43.3

[[record]]
sequence_string = "IAHLLEHLL"
system_name = "HLA-A*02:01"
units_symbol = "µM"
reading_qualifier = "="
endpoint_value = 14.1

[[record]]
sequence_string = "GAMVEYVST"
system_name = "HLA-A*02:01"
units_symbol = "µM"
reading_qualifier = "="
endpoint_value = 24.8

[[record]]
sequence_string = "LTNVVNISTI"
system_name = "HLA-A*02:01"
units_symbol = "µM"
reading_qualifier = "≥"
endpoint_value = 70

[[record]]
sequence_string = "ITDAAVAVA"
system_name = "HLA-A*02:01"
units_symbol = "µM"
reading_qualifier = "="
endpoint_value = 8.52

[[record]]
sequence_string = "LARNLGLVDI"
system_name = "HLA-A*02:01"
units_symbol = "µM"
reading_qualifier = "≥"
endpoint_value = 70

[[record]]
sequence_string = "EVVANVIGL"
system_name = "HLA-A*02:01"
units_symbol = "µM"
reading_qualifier = "="
endpoint_value = 12.2

[[record]]
sequence_string = "DMIHNVIDDV"
system_name = "HLA-A*02:01"
units_symbol = "µM"
reading_qualifier = "="
endpoint_value = 19.8

[[record]]
sequence_string = "LTGTFVTAFI"
system_name = "HLA-A*02:01"
units_symbol = "µM"
reading_qualifier = "="
endpoint_value = 5.05

[[record]]
sequence_string = "MLHNPTSET"
system_name = "HLA-A*02:01"
units_symbol = "µM"
reading_qualifier = "="
endpoint_value = 13.7

[[record]]
sequence_string = "IIAVFDSKLI"
system_name = "HLA-A*02:01"
units_symbol = "µM"
reading_qualifier = "="
endpoint_value = 5.93

[[record]]
sequence_string = "FTNLLSKNT"
system_name = "HLA-A*02:01"
units_symbol = "µM"
reading_qualifier = "="
endpoint_value = 13.1

[[record]]
sequence_string = "YIRNTLTEKI"
system_name = "HLA-A*02:01"
units_symbol = "µM"
reading_qualifier = "="
endpoint_value = 38.4

[[record]]
sequence_string = "SVETITEKT"
system_name = "HLA-A*02:01"
units_symbol = "µM"
reading_qualifier = "≥"
endpoint_value = 70

[[record]]
sequence_string = "LVTKYPMDNV"
system_name = "HLA-A*02:01"
units_symbol = "µM"
reading_qualifier = "="
endpoint_value = 12.9

[[record]]
sequence_string = "GASYISCTA"
system_name = "HLA-A*02:01"
units_symbol = "µM"
reading_qualifier = "="
endpoint_value = 7.35

[[record]]
sequence_string = "MTENVEEDL"
system_name = "HLA-A*02:01"
units_symbol = "µM"
reading_qualifier = "="
endpoint_value = 22.1

[[record]]
sequence_string = "YVKNGTKGKL"
system_name = "HLA-A*02:01"
units_symbol = "µM"
reading_qualifier = "="
endpoint_value = 40.6

[[record]]
sequence_string = "LIAFSSGTVI"
system_name = "HLA-A*02:01"
units_symbol = "µM"
reading_qualifier = "="
endpoint_value = 7.63

[[record]]
sequence_string = "ATCALVSDCA"
system_name = "HLA-A*02:01"
units_symbol = "µM"
reading_qualifier = "="
endpoint_value = 55.8

[[record]]
sequence_string = "STNFLANAST"
system_name = "HLA-A*02:01"
units_symbol = "µM"
reading_qualifier = "≥"
endpoint_value = 70

[[record]]
sequence_string = "FIDRGSIKI"
system_name = "HLA-A*02:01"
units_symbol = "µM"
reading_qualifier = "="
endpoint_value = 6.95

[[record]]
sequence_string = "YTEAAAATCA"
system_name = "HLA-A*02:01"
units_symbol = "µM"
reading_qualifier = "="
endpoint_value = 36.5

[[record]]
sequence_string = "AMHDKKIDI"
system_name = "HLA-A*02:01"
units_symbol = "µM"
reading_qualifier = "="
endpoint_value = 8.85

[[record]]
sequence_string = "PVSTNGKIV"
system_name = "HLA-A*02:01"
units_symbol = "µM"
reading_qualifier = "≥"
endpoint_value = 70

[[record]]
sequence_string = "VTDTINTVL"
system_name = "HLA-A*02:01"
units_symbol = "µM"
reading_qualifier = "="
endpoint_value = 13.6

[[record]]
sequence_string = "CMSANEAAIT"
system_name = "HLA-A*02:01"
units_symbol = "µM"
reading_qualifier = "="
endpoint_value = 6.71

[[record]]
sequence_string = "ILYKVRKNFT"
system_name = "HLA-A*02:01"
units_symbol = "µM"
reading_qualifier = "="
endpoint_value = 7.65

[[record]]
sequence_string = "EQEIESLEA"
system_name = "HLA-A*02:01"
units_symbol = "µM"
reading_qualifier = "="
endpoint_value = 26.3

[[record]]
sequence_string = "VTNKEGVKI"
system_name = "HLA-A*02:01"
units_symbol = "µM"
reading_qualifier = "="
endpoint_value = 57.4

[[record]]
sequence_string = "LIFNVKSKLL"
system_name = "HLA-A*02:01"
units_symbol = "µM"
reading_qualifier = "="
endpoint_value = 25.5

[[record]]
sequence_string = "ATLGPANRI"
system_name = "HLA-A*02:01"
units_symbol = "µM"
reading_qualifier = "="
endpoint_value = 17

[[record]]
sequence_string = "ETMPCVKKKA"
system_name = "HLA-A*02:01"
units_symbol = "µM"
reading_qualifier = "≥"
endpoint_value = 70

[[record]]
sequence_string = "FTEEQQQSFM"
system_name = "HLA-A*02:01"
units_symbol = "µM"
reading_qualifier = "="
endpoint_value = 10.1

[[record]]
sequence_string = "EIFIRYGDA"
system_name = "HLA-A*02:01"
units_symbol = "µM"
reading_qualifier = "="
endpoint_value = 30.5

[[record]]
sequence_string = "CVDNHLGAT"
system_name = "HLA-A*02:01"
units_symbol = "µM"
reading_qualifier = "="
endpoint_value = 52.1

[[record]]
sequence_string = "SLSKRERQL"
system_name = "HLA-A*02:01"
units_symbol = "µM"
reading_qualifier = "="
endpoint_value = 5.77

[[record]]
sequence_string = "ELVNLIQAKT"
system_name = "HLA-A*02:01"
units_symbol = "µM"
reading_qualifier = "≥"
endpoint_value = 70

[[record]]
sequence_string = "IAIFNNRNL"
system_name = "HLA-A*02:01"
units_symbol = "µM"
reading_qualifier = "="
endpoint_value = 38.5

[[record]]
sequence_string = "EMKYALINLV"
system_name = "HLA-A*02:01"
units_symbol = "µM"
reading_qualifier = "="
endpoint_value = 7.36

[[record]]
sequence_string = "YITSGKNNM"
system_name = "HLA-A*02:01"
units_symbol = "µM"
reading_qualifier = "="
endpoint_value = 51.6

[[record]]
sequence_string = "DLVVLGKVTI"
system_name = "HLA-A*02:01"
units_symbol = "µM"
reading_qualifier = "="
endpoint_value = 10.9

[[record]]
sequence_string = "SISKSNAKCI"
system_name = "HLA-A*02:01"
units_symbol = "µM"
reading_qualifier = "≥"
endpoint_value = 70

[[record]]
sequence_string = "NILGGVLHT"
system_name = "HLA-A*02:01"
units_symbol = "µM"
reading_qualifier = "="
endpoint_value = 41.7

[[record]]
sequence_string = "ITDAAVAVAA"
system_name = "HLA-A*02:01"
units_symbol = "µM"
reading_qualifier = "="
endpoint_value = 6.51

[[record]]
sequence_string = "NIVTDLENRL"
system_name = "HLA-A*02:01"
units_symbol = "µM"
reading_qualifier = "="
endpoint_value = 19.6

[[record]]
sequence_string = "IVLSNTSTA"
system_name = "HLA-A*02:01"
units_symbol = "µM"
reading_qualifier = "="
endpoint_value = 16.9

[[record]]
sequence_string = "FLDDSNKRKV"
system_name = "HLA-A*02:01"
units_symbol = "µM"
reading_qualifier = "="
endpoint_value = 8.41

[[record]]
sequence_string = "DLFPKQTIQT"
system_name = "HLA-A*02:01"
units_symbol = "µM"
reading_qualifier = "="
endpoint_value = 12.9

[[record]]
sequence_string = "VISPMGKLT"
system_name = "HLA-A*02:01"
units_symbol = "µM"
reading_qualifier = "="
endpoint_value = 8.49

[[record]]
sequence_string = "AIKSNNHLT"
system_name = "HLA-A*02:01"
units_symbol = "µM"
reading_qualifier = "="
endpoint_value = 27.2

[[record]]
sequence_string = "LQDIVNEHDI"
system_name = "HLA-A*02:01"
units_symbol = "µM"
reading_qualifier = "="
endpoint_value = 23.3

[[record]]
sequence_string = "HINDQKFDDV"
system_name = "HLA-A*02:01"
units_symbol = "µM"
reading_qualifier = "="
endpoint_value = 13.2

[[record]]
sequence_string = "LAYYNSCML"
system_name = "HLA-A*02:01"
units_symbol = "µM"
reading_qualifier = "="
endpoint_value = 46.1

[[record]]
sequence_string = "ELTASGGKVL"
system_name = "HLA-A*02:01"
units_symbol = "µM"
reading_qualifier = "≥"
endpoint_value = 70

[[record]]
sequence_string = "HIDYNEDMIT"
system_name = "HLA-A*02:01"
units_symbol = "µM"
reading_qualifier = "="
endpoint_value = 51.4

[[record]]
sequence_string = "IAHLLEHLLI"
system_name = "HLA-A*02:01"
units_symbol = "µM"
reading_qualifier = "="
endpoint_value = 15.7

[[record]]
sequence_string = "LLTKSNNGT"
system_name = "HLA-A*02:01"
units_symbol = "µM"
reading_qualifier = "="
endpoint_value = 13.9

